Below, IC50 values reported for TBK1 (Homo sapiens) across several publications.

Observe how each entry below is paired with its result.
structure_notation: COc1cc(C(=O)N(C)C)ccc1-c1cc2nccc(-c3ccc(OC4CCOCC4)c(C#N)c3)c2o1
IC50: < 300 nM
//
structure_notation: Cn1cc(-c2c(C(F)(F)F)cnc3[nH]c(-c4cccc(C(=O)N5CCOCC5)c4)cc23)cn1
IC50: 300 to 3000 nM
//
structure_notation: CN1CCN(C(=O)c2ccc(-c3cc4nccc(-c5ccc(N6CCOCC6)c(C#N)c5)c4o3)cc2)CC1
IC50: < 300 nM

What is its IC50 for TBK1 (Homo sapiens)? Entry: `N#Cc1cc(-c2ccnc3cc(-c4ccc(C(=O)N5CCNCC5)cc4F)oc23)ccc1OC1CCOCC1`
< 300 nM

Observed IC50 on TBK1 (Homo sapiens) for `CN1CCN(C(=O)c2ccc(-c3cc4nccc(-c5ccc(OC6CCOCC6)c(C#N)c5)c4s3)cc2)CC1` , please.
< 300 nM

Which measured IC50 belongs to `N#Cc1cc(-c2ccnc3cc(-c4cccc5[nH]ccc45)oc23)ccc1OC1CCOCC1` , tested on TBK1 (Homo sapiens)?
< 300 nM

# get_value(readout= IC50, system= TBK1 (Homo sapiens)) for `c1cc(-c2c[nH]c3ncccc23)c2ccncc2c1`
1000 to 10000 nM

Request: IC50, test system TBK1 (Homo sapiens), entry `COc1cc(-c2cc3nccc(-c4ccc(OC5CCOCC5)c(C#N)c4)c3o2)ccc1C(=O)NCCN(C)C`
< 300 nM

Under TBK1 (Homo sapiens): IC50 value of `Cn1cc(-c2cnc3[nH]cc(-c4ccc(OC5CCOCC5)c(C#N)c4)c3c2)cn1` ?
< 300 nM
